system_name: Thermococcus sp. DNA polymerase (Thermococcus sp.)
Sequence: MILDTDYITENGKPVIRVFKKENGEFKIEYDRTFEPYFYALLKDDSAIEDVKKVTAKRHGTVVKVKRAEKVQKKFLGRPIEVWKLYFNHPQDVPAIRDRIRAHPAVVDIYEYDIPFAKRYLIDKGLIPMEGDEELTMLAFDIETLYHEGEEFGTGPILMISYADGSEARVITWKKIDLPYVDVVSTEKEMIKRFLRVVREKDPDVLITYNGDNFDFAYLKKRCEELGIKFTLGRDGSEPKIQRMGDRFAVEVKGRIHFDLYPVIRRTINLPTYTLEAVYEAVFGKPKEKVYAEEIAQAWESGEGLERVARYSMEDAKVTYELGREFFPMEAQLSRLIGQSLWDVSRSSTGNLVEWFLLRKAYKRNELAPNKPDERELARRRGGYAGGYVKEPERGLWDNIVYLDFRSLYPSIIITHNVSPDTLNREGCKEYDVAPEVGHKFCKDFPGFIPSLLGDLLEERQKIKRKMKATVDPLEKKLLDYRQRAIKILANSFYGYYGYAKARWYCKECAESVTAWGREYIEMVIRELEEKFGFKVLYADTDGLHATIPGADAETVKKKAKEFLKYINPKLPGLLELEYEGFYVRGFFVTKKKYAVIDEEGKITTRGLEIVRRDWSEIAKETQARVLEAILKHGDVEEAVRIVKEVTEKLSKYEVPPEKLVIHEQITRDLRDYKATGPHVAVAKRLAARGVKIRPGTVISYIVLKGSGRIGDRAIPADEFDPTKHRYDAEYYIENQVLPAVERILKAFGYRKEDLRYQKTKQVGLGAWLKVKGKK
test_description: EMSA
condition: EMSA as for Taq, 1x TAE with 2 mM EDTA
readout: Kd (nM)
API: value field is a number in nM; no unit string.

## Input What Kd value was documented for this sequence, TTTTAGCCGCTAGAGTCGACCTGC [24 nt primer] ?
## Output 52

Now for a further sequence.
## Input What Kd value was documented for this sequence, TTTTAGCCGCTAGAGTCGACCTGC / GGAGACAAGCTTGTATGCCTGCAGGTCGACTCTAGCGGCTAAAA [24/44 nt template-primer duplex] ?
## Output 2.8
